Below are IC50 values recorded for human PRS (Homo sapiens, UniProt P07814).
Hi! Could you send only the number? It should be in nM, unit omitted.

molecule	number
Cn1cc(-c2cc(F)cc(CNC(=O)c3nccc4nc(C5CCCC5)[nH]c34)c2)cn1 [T-3833261]	3.6

Please find the next molecule below.
-- ask Name the reported IC50 value associated with the molecule O=C(CC1NCCCC1O)Cn1cnc2cc(Br)c(Cl)cc2c1=O (centres unmarked) [HF, Halofuginone, reference compound]
-- reply 8.7

====

- measured-target: 27 kinases
- measurement-protocol: kinase panel experiment
- Type: biochemical
- applied-conditions: almost no inhibitory activity, read-out: IC50 against 27 kinases
experimental-readout: IC50

-- ask Record request: IC50 value, item Cn1cc(-c2cc(F)cc(CNC(=O)c3nccc4nc(C5CCCC5)[nH]c34)c2)cn1
-- reply > 1000 nM
